tested on: HOP-92 NSCLC; assay: NCI-60 one-dose screen, 48 h; settings: 10 µM unless noted
About 83,000 compounds went through this panel and 20% of them were active in at least one assay; those are over-represented in the sample as a whole. Activity calls are given as the source filed them. How the source made its calls: active means growth percent below 10; inactive means the rest.
Answer with one of the outcomes active, inactive

Please review the following examples before continuing.
compound=COc1cc2cc(c1Cl)N(C)C(=O)C[C@H](OC(=O)[C@H](C)N(C)C(=O)CCS)C[C@]1(C)O[C@H]1[C@H](C)[C@@H]1C[C@@](O)(NC(=O)O1)[C@H](OC)/C=C/C=C(\C)C2 assigned_label=active
compound=C=C(C)[C@@H]1CC[C@]2(C(=O)N3CCN(C)CC3)CC[C@]3(C)[C@H](CC[C@@H]4[C@@]5(C)C/C(=C/c6ccco6)C(=O)C(C)(C)[C@@H]5CC[C@]43C)[C@@H]12 assigned_label=inactive
compound=CC(C)NS(=O)(=O)c1cccc(-c2ccc3c4c(n(CCCN(C)C)c(=O)c3c2)-c2ccccc2C4=O)c1 assigned_label=inactive
compound="CC(C)Cc1cc(CNC(=O)C2[C@H]3CN(C(=O)c4ccccc4)C[C@@H]23)nn1-c1ccccc1 (some centres not stated)" assigned_label=inactive
compound="Cc1nc2sc(C(=O)Nc3cccc4ccccc34)c(N)c2cc1C(C)O (configuration not stated)" assigned_label=inactive
compound=CCn1cc(C(=O)O)c(=O)c2cc(F)c(N3CCN(CC(=O)Nc4ccc(/C(C)=N/OC)cc4)CC3)cc21 assigned_label=inactive

(Q) Per the assay record, what outcome was assigned to CCCCN(CCCC)CC(CN(CC)CC)OC(=O)Nc1ccccc1 (configuration not stated) ?
(A) inactive

Values compiled from PubChem BioAssay (NCI).
